Molecular target: T1, human B7-H4 on the cell surface (human, UniProt Q7Z7D3 25-282)
T1 construct: whole, on cells; also called hu B7-H4; CHO-K1/huB7-H4
T1 sequence (looked up): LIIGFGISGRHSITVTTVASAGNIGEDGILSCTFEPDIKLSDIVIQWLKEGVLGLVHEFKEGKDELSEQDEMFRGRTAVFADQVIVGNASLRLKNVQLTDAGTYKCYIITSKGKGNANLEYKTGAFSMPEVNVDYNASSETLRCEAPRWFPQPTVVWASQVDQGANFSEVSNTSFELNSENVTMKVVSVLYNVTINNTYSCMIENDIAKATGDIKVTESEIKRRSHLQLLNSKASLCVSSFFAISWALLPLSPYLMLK
Assay: FACS, CHO-K1/hu B7-H4 cells
reported-metric: Maximum MFI
Just so you know, I need the unit written after the number.

Entry under test: PR007202 (antibody, IgG1, V domains shown, also called charge variant of PR006004 (V46E, G55S, R56T)) VH: EVQLVESGGGLVQPGGSLRLSCAASGFAFSNYWMHWARQVPGKGREWISRISGDSTSTSYADSVKGRFTISRDNAKNMVYLQMNNLRAEDTAVYYCARDRFGDDYYYGMNVWGQGTTVTVSS . Its Maximum MFI was 1.51e+06 MFI

Entry under test: PR007196 (antibody, IgG1, V domains shown, also called charge variant of PR006004 (V46E, G55S, R56E)) VH: EVQLVESGGGLVQPGGSLRLSCAASGFAFSNYWMHWARQVPGKGREWISRISGDSESTSYADSVKGRFTISRDNAKNMVYLQMNNLRAEDTAVYYCARDRFGDDYYYGMNVWGQGTTVTVSS . Its Maximum MFI was 971000 MFI

Entry under test: PR007201 (antibody, IgG1, V domains shown, also called charge variant of PR006004 (V46E, G55S, R56S, A61E)) VH: EVQLVESGGGLVQPGGSLRLSCAASGFAFSNYWMHWARQVPGKGREWISRISGDSSSTSYEDSVKGRFTISRDNAKNMVYLQMNNLRAEDTAVYYCARDRFGDDYYYGMNVWGQGTTVTVSS . Its Maximum MFI was 1.46e+06 MFI

Entry under test: PR006004 (antibody, V domains shown, also called R7004M1A2; anti-human B7-H4 HCAb monoclonal antibody) VH: EVQLVESGGGLVQPGGSLRLSCAASGFAFSNYWMHWARQVPGKGRVWISRISGDGRSTSYADSVKGRFTISRDNAKNMVYLQMNNLRAEDTAVYYCARDRFGDDYYYGMNVWGQGTTVTVSS . Its Maximum MFI was 1.63e+06 MFI

Entry under test: PR007203 (antibody, IgG1, V domains shown, also called charge variant of PR006004 (V46E, G55S, R56T, A61E)) VH: EVQLVESGGGLVQPGGSLRLSCAASGFAFSNYWMHWARQVPGKGREWISRISGDSTSTSYEDSVKGRFTISRDNAKNMVYLQMNNLRAEDTAVYYCARDRFGDDYYYGMNVWGQGTTVTVSS . Its Maximum MFI was 1.53e+06 MFI

Entry under test: PR007195 (antibody, IgG1, V domains shown, also called charge variant of PR006004 (V46E, G55S, R56D, A61E)) VH: EVQLVESGGGLVQPGGSLRLSCAASGFAFSNYWMHWARQVPGKGREWISRISGDSDSTSYEDSVKGRFTISRDNAKNMVYLQMNNLRAEDTAVYYCARDRFGDDYYYGMNVWGQGTTVTVSS . Its Maximum MFI was 1.58e+06 MFI

Entry under test: PR007200 (antibody, IgG1, V domains shown, also called charge variant of PR006004 (V46E, G55S, R56S)) VH: EVQLVESGGGLVQPGGSLRLSCAASGFAFSNYWMHWARQVPGKGREWISRISGDSSSTSYADSVKGRFTISRDNAKNMVYLQMNNLRAEDTAVYYCARDRFGDDYYYGMNVWGQGTTVTVSS . Its Maximum MFI was 1.48e+06 MFI
